Tested on: Hepatitis B virus
assay.method.text: Antiviral activity against HBV infected in human HepG2.2.15 cells assessed as inhibition of viral surface antigen production
Type: functional, organism-based
measurement.context: HepG2 2.2.15
property.label: pIC50
As a rule, pIC50 stands for the negative log10 of the concentration, concentration in M.

[[record]]
mol = "CC(=O)O[C@H]1C[C@@H]2C(=CC[C@@H]3[C@@]2(C)C(=O)C[C@]2(C)[C@@H]([C@@](C)(O)C(=O)CCC(C)(C)OC(C)=O)[C@H](O)C[C@@]32C)C(C)(C)[C@@H]1OC(C)=O"
recorded_value = 4.65

[[record]]
mol = "CCOCC(=O)O[C@H]1C[C@@H]2C(=CC[C@@H]3[C@@]2(C)C(=O)C[C@]2(C)[C@@H]([C@@](C)(O)C(=O)CCC(C)(C)OC(=O)COCC)[C@H](OC(=O)COCC)C[C@@]32C)C(C)(C)[C@@H]1OC(=O)COCC"
recorded_value = 3.65


Given CC(=O)OC(C)(C)CCC(=O)[C@](C)(O)[C@H]1[C@H](O)C[C@@]2(C)[C@@H]3C[C@@H](O)[C@]4(OC(=O)c5cccc(Cl)c5)[C@@H](C[C@H](O)[C@@H](O)C4(C)C)[C@]3(C)C(=O)C[C@]12C , state its recorded pIC50.
4.62

Field request: pIC50 | item: CCC(=O)O[C@H]1C[C@H]2[C@]3(C)C(=O)C[C@]4(C)[C@@H]([C@@](C)(O)C(=O)CCC(C)(C)OC(C)=O)[C@H](OC(=O)CC)C[C@@]4(C)[C@@H]3C[C@H]3O[C@]32C(C)(C)[C@@H]1OC(=O)CC
3.11

###

Tested on: Hepatitis B virus
assay.method.text: Antiviral activity against HBV infected in human HepG2.2.15 cells assessed as inhibition of viral surface antigen production
Type: functional, organism-based
measurement.context: HepG2 2.2.15
IC50: recorded values

The cases that follow already have their IC50 on record.
[[record]]
mol = "CC(=O)OC(C)(C)CCC(=O)[C@](C)(O)[C@H]1[C@H](O)C[C@@]2(C)[C@@H]3C[C@H]4O[C@@]45[C@@H](C[C@H](O)[C@@H](O)C5(C)C)[C@]3(C)C(=O)C[C@]12C"
recorded_value = "> 1740 µM"

[[record]]
mol = "CCOCC(=O)O[C@H]1C[C@H]2[C@]3(C)C(=O)C[C@]4(C)[C@@H]([C@@](C)(O)C(=O)CCC(C)(C)OC(C)=O)[C@H](OC(=O)COCC)C[C@@]4(C)[C@@H]3C[C@H]3O[C@]32C(C)(C)[C@@H]1OC(=O)COCC"
recorded_value = "> 633 µM"

[[record]]
mol = "CCC(=O)O[C@H]1C[C@@H]2C(=CC[C@@H]3[C@@]2(C)C(=O)C[C@]2(C)[C@@H]([C@@](C)(O)C(=O)CCC(C)(C)OC(C)=O)[C@H](OC(C)=O)C[C@@]32C)C(C)(C)[C@@H]1OC(=O)CC"
recorded_value = "> 650 µM"


--- query ---
For the compound shown here, CCCC(=O)O[C@H]1C[C@H]2[C@]3(C)C(=O)C[C@]4(C)[C@@H]([C@@](C)(O)C(=O)CCC(C)(C)OC(C)=O)[C@H](OC(=O)CCC)C[C@@]4(C)[C@@H]3C[C@H]3O[C@]32C(C)(C)[C@@H]1OC(=O)CCC , give the reported IC50.
> 618 µM
